# TEST PROTOCOL: In vitro enzyme assay to detect hydrolysis of chlorophenol red-beta-D-[…] directly proportional to the number of Toxoplasma stably expressing beta-galactosidase
# Type: functional, organism-based, Toxoplasma gondii
# Set-up: scale not given: in the data most compounds retested in dose-response had high values
# CONDITION INFO: 10 µM
The whole screen tested about 85,000 compounds, of which about 440 (0.52%) showed an effect of 50% or more. This excerpt belongs to a sample that is enriched for strong results.
MEASURED ENDPOINT: Percent Effect (%)
Give bare numbers, in %.

Example molecules with recorded Percent Effect:
MOLECULE	Percent Effect [%]
COc1ccc(C2CCCN2c2nnc(C)s2)c(OC)c1 (stereo unspecified)	0.194
Cc1[nH]c2ccccc2c1-c1ccnc(NC[C@H](O)CO)n1	15.34
COc1cccc(-c2noc(C3CCN(Cc4ccccc4F)C3)n2)c1.Cl (stereo unspecified)	11.37
Cc1[nH]c2ccccc2c1-c1ccnc(N[C@H](CO)CC(C)C)n1	53.1

Items follow; give Percent Effect for each.
1. Cc1[nH]c2ccccc2c1-c1ccnc(N[C@@H](CO)C(C)C)n1
2. COc1ccc(C2CCCN2c2cnccn2)c(OC)c1 (stereo unspecified)

Return:
[48.14, -3.299]
